Assay system Proteus vulgaris IFO 3167; read-out recorded as MIC.

# lookup: MIC of CCC1OC(=O)CC(O)C(C)C(OC2OC(C)C(O)C(N(C)C)C2O)C(CC=O)CC(C)C(=O)CC(Sc2ccc(N)cc2)C(C)=CC1COC1OC(C)C(O)C(OC)C1OC (stereo not drawn)
> 100 µg/mL

What does the data say about its MIC? Entry: CCC1OC(=O)CC(O)C(C)C(OC2OC(C)C(O)C(N(C)C)C2O)C(CC=O)CC(C)C(=O)CC(SCCO)C(C)=CC1COC1OC(C)C(O)C(OC)C1OC (stereo not drawn)
> 100 µg/mL

Param item = CCSC1CC(=O)C(C)CC(CC=O)C(OC2OC(C)C(OC3CC(C)(O)C(O)C(C)O3)C(N(C)C)C2O)C(C)C(O)CC(=O)OC(CC)C(COC2OC(C)C(O)C(OC)C2OC)C=C1C (stereo not drawn) [Compound R, 11-(Ethylthio)-10,11-dihydrotylosin] ; retrieve measured MIC.
> 100 µg/mL

All figures here come from patent US4594338A.
